# target.or.test.system: T1, HLA-A*02:01 (human)
# T1 construct: captured on streptavidin plates, detected with anti-β2m; also called peptide-receptive MHC molecules; MHC class I
# assay.info: UV-ligand exchange + anti-β2m ELISA; exchange yield grade: ≥10% +, ≥20% ++, ≥50 +++, ≥75% ++++
# Protocol: The individual peptide-MHC complexes were produced by UV-ligand exchange, where a UV-sensitive peptide is cleaved upon UV-irradiation and exchanged with the peptide of interest as analyzed. […] 96 well MAXISorp plates (NUNC) were coated over night with 2 μg/ml streptavidin in PBS at room temperature, washed 4× and blocked for 1 h at 37° C. in 2% BSA containing blocking buffer. […] Absorption was measured at 450 nm. […]
measured.attribute: peptide exchange yield

>>> value_observed("WLIPRQLAAA (also called WLIPRQLAAA) [altORF-042]")
"≥ 75%"
>>> value_observed("ALLPGVPGL (also called ALLPGVPGL) [altORF-045]")
"≥ 75%"
>>> value_observed("SQLEKPETA (also called SQLEKPETA) [altORF-026]")
"50 to 75%"
>>> value_observed("SLMEVTHDL (also called SLMEVTHDL) [LARS-001]")
"≥ 75%"
